So I've got a bunch of variants here, and I need their FACS-Seq fitted mean (log10) values.
B1: library; a variant is named by its letters at N, in order (parent)
chain: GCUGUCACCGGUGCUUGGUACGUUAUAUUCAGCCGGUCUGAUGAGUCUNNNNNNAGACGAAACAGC

Variants of: B1
protocolDescription: FACS-Seq fitted mean relative fluorescence mCherry/BFP without ligand (log10 relative fluorescence); HEK293T overexpressing SLC46A1; higher = higher reporter protein expression
statedConditions: without (6R,S)-folinic acid; ligand present: no
Numbers only.

Before answering, review these 3 worked examples.
variantAnnotation	FACS-Seq fitted mean (log10)
AACAUA	0.204
AAUAGA	0.354
UUCGAG	0.119

Provide each entry's FACS-Seq fitted mean (log10) from the list below.
1. GGAAUG
2. AUAGAU

stdout:
1: 0.589; 2: 0.365
